biological target: erythrocytes infected with P. falciparum field isolate 11014; assay: flow cytometry, staining of IEs
Endpoint name: % parasite recognition (%)
# value in %; strip the unit string

Some binders with known % parasite recognition results, for comparison:
MGC35 (antibody) VH: EVQLVESGGGLVQPGGSLRLSCEASGFNSRSYWMTWVRQAPGKGLEWVASINQDATEKNYVDSVKGRFTISRDTAKNSLYLQMNSLRAEDTAVYYCARDRFCGGESHLHGQEDLPRPSISAEPGSVIPLGSLVTFVCRGPVGVHTFRLERGWTYNDTEDVSQAGPSESEARFRMDSVREGNAGLYRCIYYKPPKWSEQSAYLELRVKGGDVTWALLTYCGGDGEESDYPMDVWGKGTTVTVSS VL: QTVVTQEPSLTVSPGGTVTLTCASSTGPVTSAYYPNWFQQKPGQAPRSLIYNINKKHSWTPDRFSGSLLGGKAALTLSGVQPEDEADYYCLLSCGGAQPWVFGGGTKLTVQ | 3.6
MGD33 (antibody) VH: HVQLQESGPGLVKPSETLSLSCAVTGGSITSSKWWTWVRQGPDKGLEWIGKIYHNGTTNYNPSLKSRVAMSVDKSKNQFSLRLTSVTAADTAVYYCATASPFKSHHRTTEKLPRPSISAEPGTVIPLGSRVTFVCRGPVGVQTFRLERETRSTYNDTEDVSQVSPSESEARFRIDSVSEGYAGPYRCVYYKAPKWSEQSDYLDLLVKGEDVTWALTQPQLDPRACPQGDLRMSTDIYCMDVWGKGTTVTVSS VL: AIRLTQSPSSLSASIGDRVTITCRASQDISTYLAWYQQESGKAPRLLIFAASSLQTGVPSRFSGSGSGTDFTLTISGLQSEDFATYYCQQYYCFPPDFGQGTRLDIK | 7
MGC36 (antibody) VH: EVVLVESGGGLVQPGGSLRLSCEASGFNSRSYWMTWVRQAPGKGLEWVASINQDGTEKNYVDSVKGRFTISRDSAKNSLYLQMSSLRADDTAVYYCARDRFCGGESHLHGEEDLPRPSISAEPDTVIPLGSHVTFVCRGPVGVHTFRLERGWRYNDTEDVSQAGPSESEARFRIDSVREGNAGLYRCIYYIAPKWSEQSDYLELRVKGGDVTWALLTYCGGDGEESDYPMDVWGKGTTVTVSS VL: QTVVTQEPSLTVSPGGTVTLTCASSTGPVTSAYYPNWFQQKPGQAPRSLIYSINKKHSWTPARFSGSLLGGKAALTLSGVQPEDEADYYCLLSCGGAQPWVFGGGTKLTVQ | 4.6

(Q) Param item = MGC28 (antibody) VH: EVQLVESGGGLVQPGGSLRLSCEASGFTFSSYWMTWVRQAPGKGLEWVANINQDGSERYYVDSVKGRFTISRDTVKNSLYLQMNNLRAEDTAVYYCARQRFCSDGSLFHGEDLPRPTISAETGTVISLGSHVTFVCRGPLGVQTFRLERESRSRYSETEDVSQVGPSESEARFRIDSVSEGNAGLYRCIYYKPPKWSEQSDYLELRVKGEDVTWALLTYCGGDRDESDYYMDVWGKGTTVTVSS VL: QTVVTQEPSLTVSPGGTVTLTCASSTGSVTSGSFPNWFQQTPGQAPRSLIYSTTKKHSWTPARFSGSLLGGKAALTVSDTQPEDEAEYYCLLYCGGGQPWVFGGGTKLTVL ; retrieve measured % parasite recognition.
(A) 2.8
